- assayedSystem: Neurogenic locus notch homolog protein 2 (Homo sapiens) (UniProt Q04721)
- Sequence (Q04721 whole entry, looked up): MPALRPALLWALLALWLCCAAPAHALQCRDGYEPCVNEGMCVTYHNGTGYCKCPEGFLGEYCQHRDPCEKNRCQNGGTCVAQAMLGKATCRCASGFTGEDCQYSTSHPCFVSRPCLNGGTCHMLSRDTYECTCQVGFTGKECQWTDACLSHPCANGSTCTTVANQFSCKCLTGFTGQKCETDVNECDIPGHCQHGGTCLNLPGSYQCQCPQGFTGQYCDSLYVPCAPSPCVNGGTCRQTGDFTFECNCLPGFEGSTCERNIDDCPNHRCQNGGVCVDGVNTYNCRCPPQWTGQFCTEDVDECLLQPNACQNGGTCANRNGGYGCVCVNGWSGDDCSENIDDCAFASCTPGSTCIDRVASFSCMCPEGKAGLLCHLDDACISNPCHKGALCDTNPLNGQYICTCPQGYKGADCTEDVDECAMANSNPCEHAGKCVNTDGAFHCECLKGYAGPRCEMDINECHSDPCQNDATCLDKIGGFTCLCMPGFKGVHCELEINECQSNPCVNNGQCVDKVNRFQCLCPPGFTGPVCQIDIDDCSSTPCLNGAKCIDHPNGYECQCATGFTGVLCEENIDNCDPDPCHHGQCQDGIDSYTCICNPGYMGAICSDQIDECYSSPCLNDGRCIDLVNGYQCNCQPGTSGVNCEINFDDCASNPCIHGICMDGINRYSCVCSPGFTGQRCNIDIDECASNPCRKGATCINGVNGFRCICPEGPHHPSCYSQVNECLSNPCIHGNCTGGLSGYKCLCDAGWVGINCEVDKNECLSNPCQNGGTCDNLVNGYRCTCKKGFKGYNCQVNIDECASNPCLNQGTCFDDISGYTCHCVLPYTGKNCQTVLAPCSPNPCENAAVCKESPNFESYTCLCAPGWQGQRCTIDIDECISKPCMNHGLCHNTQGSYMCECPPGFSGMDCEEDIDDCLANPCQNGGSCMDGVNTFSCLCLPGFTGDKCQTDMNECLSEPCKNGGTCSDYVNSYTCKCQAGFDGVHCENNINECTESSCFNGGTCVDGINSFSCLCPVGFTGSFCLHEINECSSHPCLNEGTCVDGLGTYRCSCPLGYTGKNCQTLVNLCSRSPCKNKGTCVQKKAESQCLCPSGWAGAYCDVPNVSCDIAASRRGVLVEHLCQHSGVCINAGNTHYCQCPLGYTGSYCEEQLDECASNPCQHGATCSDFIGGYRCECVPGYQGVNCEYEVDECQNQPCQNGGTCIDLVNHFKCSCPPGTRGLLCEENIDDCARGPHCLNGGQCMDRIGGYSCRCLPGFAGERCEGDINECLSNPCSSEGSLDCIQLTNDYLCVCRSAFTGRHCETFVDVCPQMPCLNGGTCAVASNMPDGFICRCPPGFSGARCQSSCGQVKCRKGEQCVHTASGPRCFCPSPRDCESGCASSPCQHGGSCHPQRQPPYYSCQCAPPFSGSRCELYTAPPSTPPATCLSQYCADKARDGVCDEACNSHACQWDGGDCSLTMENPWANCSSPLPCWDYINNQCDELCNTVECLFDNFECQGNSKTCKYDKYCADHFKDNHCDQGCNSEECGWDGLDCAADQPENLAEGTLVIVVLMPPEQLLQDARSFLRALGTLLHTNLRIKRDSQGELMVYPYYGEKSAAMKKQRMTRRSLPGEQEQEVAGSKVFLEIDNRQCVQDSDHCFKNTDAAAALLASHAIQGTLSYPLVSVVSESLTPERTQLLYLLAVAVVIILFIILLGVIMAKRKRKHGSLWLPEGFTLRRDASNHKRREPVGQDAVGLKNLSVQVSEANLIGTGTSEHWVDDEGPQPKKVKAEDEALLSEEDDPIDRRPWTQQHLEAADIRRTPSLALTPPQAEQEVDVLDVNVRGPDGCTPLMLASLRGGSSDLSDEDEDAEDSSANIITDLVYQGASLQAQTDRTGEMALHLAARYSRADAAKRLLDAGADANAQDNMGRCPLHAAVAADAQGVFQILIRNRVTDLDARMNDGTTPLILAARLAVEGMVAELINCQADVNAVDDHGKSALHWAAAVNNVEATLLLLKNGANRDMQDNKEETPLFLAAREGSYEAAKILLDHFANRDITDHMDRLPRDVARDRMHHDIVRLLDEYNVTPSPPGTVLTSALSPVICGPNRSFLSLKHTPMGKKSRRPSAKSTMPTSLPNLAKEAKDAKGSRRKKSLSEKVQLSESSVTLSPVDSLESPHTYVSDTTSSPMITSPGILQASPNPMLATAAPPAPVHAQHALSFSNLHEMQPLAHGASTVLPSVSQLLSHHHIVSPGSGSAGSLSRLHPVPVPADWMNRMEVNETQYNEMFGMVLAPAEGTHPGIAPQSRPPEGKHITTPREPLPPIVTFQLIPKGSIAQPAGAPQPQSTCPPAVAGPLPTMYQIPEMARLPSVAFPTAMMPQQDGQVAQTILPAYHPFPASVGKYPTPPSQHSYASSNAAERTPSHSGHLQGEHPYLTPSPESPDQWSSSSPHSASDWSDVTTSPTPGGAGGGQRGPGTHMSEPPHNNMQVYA
- protocol: small molecules binding Notch2 protein – biochemical, small-molecule microarray, 635 nm fluorescence, stem cell growth factors, primary screen (AID 1073)
- appliedConditions: higher = more signal
Entries and their measured composite z-score follow.
Response field accepts a number only; no unit should be typed.

1) CO[C@H]1O[C@H](CO)[C@@H](OC(=O)Nc2ccc3c(c2)OCO3)[C@H](OC(=O)Nc2ccc3c(c2)OCO3)[C@H]1OC(=O)Nc1ccc2c(c1)OCO2 ... 1.39
2) COc1ccc([Si](C)(C)[C@H]2[C@H](CC(=O)N(CCO)Cc3ccccc3)O[C@@]3(C(=O)N(Cc4cccc(N5C(=O)c6cccc7cccc5c67)c4)c4ccccc43)[C@@H]2C)cc1 ... -0.588
3) CCOC(=O)C1=C[C@@H](C(C)(C)C)N(S(=O)(=O)c2ccc(C)cc2)[C@H]1c1ccc(Cl)c(Cl)c1 ... 1.56
4) CO[C@H]1O[C@H](CO)[C@@H](OC(=O)Nc2ccccc2-c2ccccc2)[C@H](OC(=O)Nc2ccccc2-c2ccccc2)[C@H]1OC(=O)Nc1ccccc1-c1ccccc1 ... 1.4
5) C=C[C@H](OC)[C@@H](OC(=O)Nc1ccc(SC)cc1)c1ccc(OCCO)cc1 ... -0.21
6) CCCCCCCCCCC(O)C1C=CC2C(=O)N(c3ccccc3)C(=O)C2N1Nc1ccc([N+](=O)[O-])cc1 (stereo not drawn) ... 1.44
7) COc1ccc([Si](C)(C)[C@@H]2[C@@H](CCO)O[C@]3(C(=O)N(Cc4cccc(N5CCCCC5=O)c4)c4ccccc43)[C@H]2C)cc1 ... 0.869
8) O=C(CS)NCCCCCCNC(=O)[C@H]1C[C@H]2C(=O)N3CCC[C@H]3C(=O)N2[C@H]1c1ccc(O)cc1 ... -0.183
9) OCCCc1cc[n+](Cc2cccc(OC(F)(F)F)c2)cc1 ... 0.272
10) COc1ccc(C(=O)Nc2cccc(CN3C(=O)[C@@]4(O[C@@H](CCn5cc([C@H](O)c6ccccc6)nn5)[C@H]([Si](C)(C)c5ccc(OC)cc5)[C@H]4C)c4ccccc43)c2)cc1 ... 0.336

input: Param readout = composite z-score; param system = Neurogenic locus notch homolog protein 2 (Homo sapiens) (UniProt Q04721); param query = `CCCC[C@H]1OB(O)C[C@H]2C1=C(COc1ccccc1)C[C@H]1C(=O)N(Cc3ccccc3)C(=O)[C@H]12` ; response: value
output: 0.0238

input: Param readout = composite z-score; param system = Neurogenic locus notch homolog protein 2 (Homo sapiens) (UniProt Q04721); param query = `CC(C)NC(=O)[C@@]1(c2ccc([N+](=O)[O-])cc2)CC(=O)N(C(C)C)[C@@H]1c1ccc(CO)cc1` ; response: value
output: -0.999

input: Param readout = composite z-score; param system = Neurogenic locus notch homolog protein 2 (Homo sapiens) (UniProt Q04721); param query = `[N-]=[N+]=NCc1ccccc1C[C@]1(C(N)=O)N=C(c2ccc(OCCCO)cc2)O[C@H]1c1ccccc1N=[N+]=[N-]` ; response: value
output: 0.997

input: Param readout = composite z-score; param system = Neurogenic locus notch homolog protein 2 (Homo sapiens) (UniProt Q04721); param query = `CCCNC(=O)[C@@]1(C)c2ccccc2C(=O)N(Cc2ccc(OC(F)(F)F)cc2)[C@H]1c1ccc(CO)cc1` ; response: value
output: -0.321

input: Param readout = composite z-score; param system = Neurogenic locus notch homolog protein 2 (Homo sapiens) (UniProt Q04721); param query = `[N-]=[N+]=NCc1ccccc1C[C@]1(C(=O)N2CCOCC2)N=C(c2ccc(OCCCO)cc2)O[C@H]1c1ccccc1` ; response: value
output: 0.412

input: Param readout = composite z-score; param system = Neurogenic locus notch homolog protein 2 (Homo sapiens) (UniProt Q04721); param query = C=CCC(OC(C)=O)[C@@H]1[C@@H](N(Cc2cc3ccccc3o2)C(=O)c2ccc(C)cc2)c2cc(OCCCO)ccc2N1C(=O)c1ccc(-c2ccccc2)cc1 (stereo partly drawn) ; response: value
output: 0.127

input: Param readout = composite z-score; param system = Neurogenic locus notch homolog protein 2 (Homo sapiens) (UniProt Q04721); param query = `O=C1c2ccccc2[C@@]2(Cc3ccccc3N(Cc3ccccc3)C2=O)[C@H](c2ccc(CO)cc2)N1Cc1ccccc1C(F)(F)F` ; response: value
output: -0.233

input: Param readout = composite z-score; param system = Neurogenic locus notch homolog protein 2 (Homo sapiens) (UniProt Q04721); param query = `COC(=O)[C@@]1(Cc2ccc(F)cc2)[C@H]2c3cc(C(=O)N4CCCC4)n(Cc4ccc(Cl)c(C(F)(F)F)c4)c3C[C@H]2CN1C(=O)c1ccccc1` ; response: value
output: 1.73
